The measured values listed here are drawn from patent US10874743B2.

- testDetails: Pharmacokinetics in Sprague Dawley rats (plasma and brain concentrations, PK parameters)
- Assay type: in vivo
- assayContext: Sprague Dawley, rat, plasma, iv, 3 mg/kg, Sprague Dawley rat, iv 3 mg/kg, Rat 2; read-out: AUClast Rat 2
propertyName: AUC(0-t) (ng·h/mL)
Return type: number; implicit unit ng·h/mL.

Looking for the measured AUC(0-t) of O=C1CCC(N2C(=O)c3cccc(NCCOCCOCCNCc4ccc(-n5cc(NC(=O)c6coc(-c7ccnc(NCC8CC8)c7)n6)c(C(F)F)n5)cc4)c3C2=O)C(=O)N1 (stereo not shown) , can you help?
1210

====

- testDetails: Pharmacokinetics in CD-1 mice (plasma concentrations, PK parameters)
- Format: in vivo
- assayContext: CD-1, mouse, plasma, sc, 30 mg/kg, mouse (CD1) sc 30 mg/kg; individual Mouse 7-9; read-out: AUCInf
# AUC(0-inf) annotations
Return type: number; implicit unit ng·h/mL.

INSERT INTO assay_data (compound, resultunits, measuredresult) VALUES
  ('NC(=O)c1nn(-c2ccc(C(=O)NCCCCCNCCNc3cccc4c3C(=O)N(C3CCC(=O)NC3=O)C4=O)cc2)cc1NC(=O)c1coc(-c2ccnc(NCC(F)(F)F)c2)n1 (centres unmarked)', 'ng·h/mL', 491);

Okay, now this compound:
Looking for the measured AUC(0-inf) of O=C1CCC(N2C(=O)c3cccc(NCCOCCOCCNCc4ccc(-n5cc(NC(=O)c6coc(-c7ccnc(NCC8CC8)c7)n6)c(C(F)F)n5)cc4)c3C2=O)C(=O)N1 (centres unmarked) , can you help?
1000

====

- testDetails: Pharmacokinetics in Sprague Dawley rats (plasma and brain concentrations, PK parameters)
- Format: in vivo
- assayContext: Sprague Dawley rat, iv 3 mg/kg, mean of 3 rats
propertyName: AUClast/D Mean (kg·ng·h/mL/mg)
Return type: number; implicit unit kg·ng·h/mL/mg.

Looking for the measured AUClast/D Mean of O=C1CCC(N2C(=O)c3cccc(NCCOCCOCCNCc4ccc(-n5cc(NC(=O)c6coc(-c7ccnc(NCC8CC8)c7)n6)c(C(F)F)n5)cc4)c3C2=O)C(=O)N1 (stereo not shown) , can you help?
394

====

- testDetails: Pharmacokinetics in Sprague Dawley rats (plasma and brain concentrations, PK parameters)
- Format: in vivo
- assayContext: Sprague Dawley, rat, plasma, iv, 3 mg/kg, Sprague Dawley rat, iv 3 mg/kg, Rat 1; read-out: AUClast Rat 1
propertyName: AUC(0-t) (ng·h/mL)
Return type: number; implicit unit ng·h/mL.

Looking for the measured AUC(0-t) of O=C1CCC(N2C(=O)c3cccc(NCCOCCOCCNCc4ccc(-n5cc(NC(=O)c6coc(-c7ccnc(NCC8CC8)c7)n6)c(C(F)F)n5)cc4)c3C2=O)C(=O)N1 (stereo not shown) , can you help?
1240

====

- testedTarget: IRAK4 (Homo sapiens, UniProt Q9NWZ3)
- Sequence (Q9NWZ3 whole entry): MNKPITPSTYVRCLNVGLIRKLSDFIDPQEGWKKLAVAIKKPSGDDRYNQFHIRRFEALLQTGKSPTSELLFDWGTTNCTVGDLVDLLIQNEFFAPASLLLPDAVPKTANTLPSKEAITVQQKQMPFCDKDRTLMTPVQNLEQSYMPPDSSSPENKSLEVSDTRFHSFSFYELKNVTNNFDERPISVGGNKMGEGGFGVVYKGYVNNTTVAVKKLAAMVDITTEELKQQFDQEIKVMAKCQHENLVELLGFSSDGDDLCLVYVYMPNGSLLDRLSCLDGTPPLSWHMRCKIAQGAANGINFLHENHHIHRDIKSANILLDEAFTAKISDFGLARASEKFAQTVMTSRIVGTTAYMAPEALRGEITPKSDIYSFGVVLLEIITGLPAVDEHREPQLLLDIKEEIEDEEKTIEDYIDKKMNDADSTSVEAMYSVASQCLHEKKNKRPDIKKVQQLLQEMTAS
- testDetails: OCI-LY-10 degradation assay (western blot, % IRAK4 degraded after 4 hours)
- Format: cell-based
- Parameters: endogenous in cells; host or cells: OCI-LY10
- assayContext: OCI-LY10 cells, IRAK4 degraded after 4 hours, western blot
propertyName: OCI-LY10 % IRAK4 Degradation

INSERT INTO measurements (molecule, measuredresult) VALUES
  ('N#Cc1cnc2c(cnn2-c2cc(NC3CC3)c(C(=O)N[C@H]3CC[C@H](COCCOCCOCCNc4cccc5c4C(=O)N(C4CCC(=O)NC4=O)C5=O)CC3)cn2)c1 (stereo partly drawn) [I-32]', 'C (<20% degradation)'),
  ('O=C1CCC(N2C(=O)c3cccc(NCCOCc4ccc(COCCNC(=O)[C@H]5CC[C@H](NC(=O)c6cnc(Nc7ccc8cnccc8n7)cc6NC6CC6)CC5)nc4)c3C2=O)C(=O)N1 (stereo partly drawn) [I-41]', 'C (<20% degradation)'),
  ('CC(C)(OCCOCCOCCOCCOCCNc1cccc2c1C(=O)N(C1CCC(=O)NC1=O)C2=O)C(F)CNC(=O)c1cnc(-n2ncc3cc(C#N)cnc32)cc1NC1CC1 (stereo not drawn) [I-60]', 'C (<20% degradation)');

====

- testDetails: Pharmacokinetics in Sprague Dawley rats (plasma and brain concentrations, PK parameters)
- Format: in vivo
- assayContext: Sprague-Dawley, rat, plasma, iv, 3 mg/kg, Sprague Dawley rat, iv 3 mg/kg, plasma, 0.5 h, Rat 3; read-out: Concentration Rat 3
- Experimental: Pharmacokinetics for I-127, I-172 and I-210 were determined in Sprague Dawley rats or CD-1 mice by dosing intravenous (IV), subcutaneous (SC) or per oral (PO) using facility SOPs and sampling plasma at required time points. […] Compounds were extracted from plasma, injected on reverse phase HPLC, eluted with a gradient from 5% to 95% acetonitrile in water and quantified by mass spectrometry with internal standard. […]
propertyName: concentration at 0.5 h (ng/mL)
Return type: number; implicit unit ng/mL.

Looking for the measured concentration at 0.5 h of O=C1CCC(N2C(=O)c3cccc(NCCOCCOCCNCc4ccc(-n5cc(NC(=O)c6coc(-c7ccnc(NCC8CC8)c7)n6)c(C(F)F)n5)cc4)c3C2=O)C(=O)N1 (stereo not shown) , can you help?
312

====

# DC50 annotations
- testedTarget: IRAK4 (Homo sapiens, UniProt Q9NWZ3)
- testDetails: OCI-LY-10 MSD assay for IRAK4 DC50
- Format: cell-based
- Parameters: endogenous in cells; host or cells: OCI-LY10
- assayContext: OCI-LY10 cells, 4 hr incubation, concentration required to degrade 50% of protein

Examples from the recorded data:
INSERT INTO measurements (compound, propertyname, measuredresult) VALUES
  ('CN(C[C@H]1CN(CCCc2ccc3c(c2)n(C)c(=O)n3C2CCC(=O)NC2=O)CCO1)C(=O)c1ccc(-n2cc(NC(=O)c3coc(-c4ccnc(NCC5CC5)c4)n3)c(C(F)F)n2)cc1 (some centres unmarked)', 'DC50', '< 50 nM'),
  ('Cn1c(=O)n(C2CCC(=O)NC2=O)c2ccc(CCCN3CCO[C@H](CCNCc4ccc(-n5cc(NC(=O)c6coc(-c7ccnc(NCC(F)(F)F)c7)n6)c(C(N)=O)n5)cc4)C3)cc21 (some centres unmarked)', 'DC50', '< 50 nM'),
  ('O=C1CCC(N2C(=O)c3ccc(NCCOCCN4CC5(CN(CCOCCNCc6ccc(-n7cc(NC(=O)c8coc(-c9ccnc(NCC%10CC%10)c9)n8)c(C(F)F)n7)cc6)C5)C4)cc3C2=O)C(=O)N1 (centres unmarked)', 'DC50', '100 to 500 nM'),
  ('Cn1cc(NC(=O)c2coc(-c3ccnc(NCC(F)(F)F)c3)n2)c(CNCCCOCCCOCCCNc2cccc3c2C(=O)N(C2CCC(=O)NC2=O)C3=O)n1 (centres unmarked)', 'DC50', '> 1000 nM');

Looking for the measured DC50 of O=C1CCC(N2C(=O)c3cccc(NC4CCN(CCOCCOCCOCCNCc5ccc(-n6cc(NC(=O)c7coc(-c8ccnc(NCC9CC9)c8)n7)c(C(F)F)n6)cc5)CC4)c3C2=O)C(=O)N1 (centres unmarked) , can you help?
100 to 500 nM

====

- testDetails: Pharmacokinetics in CD-1 mice (plasma concentrations, PK parameters)
- Format: in vivo
- assayContext: mouse (CD1) sc 30 mg/kg; 4.00 h; Mean SC
- Description: Pharmacokinetics for I-127, I-172 and I-210 were determined in Sprague Dawley rats or CD-1 mice by dosing intravenous (IV), subcutaneous (SC) or per oral (PO) using facility SOPs and sampling plasma at required time points. […] Compounds were extracted from plasma, injected on reverse phase HPLC, eluted with a gradient from 5% to 95% acetonitrile in water and quantified by mass spectrometry with internal standard. […]
propertyName: concentrations (ng/mL)
Return type: number; implicit unit ng/mL.

Looking for the measured concentrations of NC(=O)c1nn(-c2ccc(C(=O)NCCOCCOCCNc3cccc4c3C(=O)N(C3CCC(=O)NC3=O)C4=O)cc2)cc1NC(=O)c1coc(-c2ccnc(NCC(F)(F)F)c2)n1 (stereo not shown) [I-127] , can you help?
1.59

====

- testDetails: Pharmacokinetics in CD-1 mice (plasma concentrations, PK parameters)
- Format: in vivo
- assayContext: CD-1, mouse, plasma, iv, 2 mg/kg, mouse (CD1) iv 2 mg/kg; 2 h; individual Mouse 1-3; read-out: Concentration
# concentration at 2 h annotations
Return type: number; implicit unit ng/mL.

INSERT INTO measurements (compound, resultunits, measuredresult) VALUES
  ('O=C1CCC(N2C(=O)c3cccc(NCCOCCOCCNCc4ccc(-n5cc(NC(=O)c6coc(-c7ccnc(NCC8CC8)c7)n6)c(C(F)F)n5)cc4)c3C2=O)C(=O)N1 (centres unmarked) [I-210]', 'ng/mL', 89.3);

Looking for the measured concentration at 2 h of NC(=O)c1nn(-c2ccc(C(=O)NCCCCCNCCNc3cccc4c3C(=O)N(C3CCC(=O)NC3=O)C4=O)cc2)cc1NC(=O)c1coc(-c2ccnc(NCC(F)(F)F)c2)n1 (centres unmarked) [I-172] , can you help?
11.5
